Provenance of the data: patent US20250281465A1

tested on: mBMDCs; experiment: Intracellular Ca2+ influx (Fura-2/Fura-8) in mBMDCs; type: cell-based, mouse; settings: 10 μM, vs Veh 0.5% DMSO / #634
RECORDED ENDPOINT: intracellular Ca^2+ influx by 634 and its SAR analogs (Fura-2)

COC(=O)c1c(NS(=O)(=O)c2cccc3c2N=S=N3)sc(C)c1C [2G179a] ... Ca^2+ influx positive
CCCOC(=O)c1c(NS(=O)(=O)c2cccc3c2N=S=N3)sc(C)c1C ... Ca^2+ influx positive
CCOC(=O)c1c(NS(=O)(=O)c2cccc3nsnc23)sc(C)c1C ... Ca^2+ influx positive
